// provenance: PubChem BioAssay (NCI)

System: COLO 205 colon
Assay Details: NCI tumour cell line growth inhibition, 48 h
The following molecules are shown together with reported TGI values.
# value in µM; strip the unit string

INSERT INTO measurements (chemical_structure, assayed_target, reading_unit, meas_value) VALUES
  ('O=C(Nc1ccc(Br)cc1)Nc1nc2ccc([N+](=O)[O-])cc2s1', 'COLO 205 colon', 'µM', 3.15),
  ('COc1cc2c3c(n(CCCNC4CCC4)c(=O)c2cc1OC)-c1cc2c(cc1C3=O)OCO2', 'COLO 205 colon', 'µM', 6.62);

We next turn to a different molecule, shown below.
Fill in reported TGI for this entry: CCNCc1c(-c2cccc(OC(F)(F)F)c2)[nH]c2ccc(N3CCCC3)cc2c1=O
5.74

====

System: TK-10 renal
Assay Details: NCI tumour cell line growth inhibition, 48 h
Quick reference for GI50 among some compounds

These recorded examples may help you get a feel for the data.
INSERT INTO assay_data (compound, meas_value) VALUES
  ('CCNC(=O)N1CCc2cc(OC)c(OCCc3ccc(OC)c(N)c3)cc2C1c1ccc(C)cc1C (stereo not given)', '2.14 µM'),
  ('C#C[C@]1(O)CC[C@H]2[C@@H]3CC=C4c5sc(Nc6nc(C)cc(OC)n6)nc5CC[C@]4(C)[C@H]3CC[C@@]21C', '14.9 µM'),
  ('O=C1[C@@H]2Cc3c([nH]c4ccccc34)[C@H](c3c(Cl)cccc3Cl)N2C(=O)CN1C1CCN(Cc2ccccc2)CC1', '2.58 µM'),
  ('COc1cc2c3c(n(CCCNC4CCC4)c(=O)c2cc1OC)-c1cc2c(cc1C3=O)OCO2', '19 µM');

Pending compound:
Supply measured GI50 of CCNCc1c(-c2cccc(OC(F)(F)F)c2)[nH]c2ccc(N3CCCC3)cc2c1=O in your reply.
24.7 µM

====

System: MCF7 breast
Assay Details: NCI tumour cell line growth inhibition, 48 h
Metric Name: TGI (µM)
Give a bare numeral; the unit µM is implied.

Given the molecule O=C1[C@@H]2Cc3c([nH]c4ccccc34)[C@H](c3c(Cl)cccc3Cl)N2C(=O)CN1C1CCN(Cc2ccccc2)CC1 , write its reported TGI.
4.61

Give a short answer stating reported TGI for O=C(NNc1nc2cc(F)c(F)cc2n2cccc12)c1ccncn1 .
3.93

====

Tested on: NCI-H522 lung
Assay Details: NCI tumour cell line growth inhibition, 48 h
Metric Name: TGI (nM)
Express your answer in nM, writing the number without its unit.

A selection of reference data follows.
INSERT INTO results (molecule, metric_name, reading_unit, meas_value) VALUES
  ('COc1cc2c3c(n(CCCNC4CCC4)c(=O)c2cc1OC)-c1cc2c(cc1C3=O)OCO2', 'TGI', 'nM', 2490),
  ('O=C(NNc1nc2cc(F)c(F)cc2n2cccc12)c1ccncn1', 'TGI', 'nM', 11600);

Enter measured TGI, system NCI-H522 lung, for the molecule shown: CCNC(=O)N1CCc2cc(OC)c(OCCc3ccc(OC)c(N)c3)cc2C1c1ccc(C)cc1C (centres undefined)
440

====

System: HL-60(TB) leukemia
Assay Details: NCI tumour cell line growth inhibition, 48 h
Metric Name: TGI
Please make sure the unit comes right after the number.

# count of solved cases: 3
INSERT INTO assay_data (compound, assayed_target, metric_name, meas_value) VALUES
  ('O=C(Nc1ccc(Br)cc1)Nc1nc2ccc([N+](=O)[O-])cc2s1', 'HL-60(TB) leukemia', 'TGI', '2750 nM'),
  ('C#C[C@]1(O)CC[C@H]2[C@@H]3CC=C4c5sc(Nc6nc(C)cc(OC)n6)nc5CC[C@]4(C)[C@H]3CC[C@@]21C', 'HL-60(TB) leukemia', 'TGI', '5380 nM'),
  ('CCNC(=O)N1CCc2cc(OC)c(OCCc3ccc(OC)c(N)c3)cc2C1c1ccc(C)cc1C (centres undefined)', 'HL-60(TB) leukemia', 'TGI', '1820 nM');

Consider the record given below.
Give reported TGI value for COc1cc2c3c(n(CCCNC4CCC4)c(=O)c2cc1OC)-c1cc2c(cc1C3=O)OCO2
1520 nM
